Kindly state IC50 for each of the entries shown.
system: human Y4 receptor (human, UniProt P50391 1-375)
Sequence (P50391 whole entry): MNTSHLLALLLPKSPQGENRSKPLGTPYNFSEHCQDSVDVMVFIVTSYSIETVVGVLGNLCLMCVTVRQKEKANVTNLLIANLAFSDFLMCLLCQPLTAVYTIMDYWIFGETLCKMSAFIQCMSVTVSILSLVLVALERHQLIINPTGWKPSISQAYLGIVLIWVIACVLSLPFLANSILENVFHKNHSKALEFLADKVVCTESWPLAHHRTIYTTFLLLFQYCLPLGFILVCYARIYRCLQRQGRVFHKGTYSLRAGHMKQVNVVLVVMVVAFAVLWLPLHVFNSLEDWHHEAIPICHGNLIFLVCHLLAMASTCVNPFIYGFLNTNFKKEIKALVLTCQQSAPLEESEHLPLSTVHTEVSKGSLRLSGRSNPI
procedureDetails: 125I-PP displacement
No end group written: not given here.
Give just the numeric value; pM need not be written.

For this binder ( APLEPVYPGDNATPEELVKYYIELRRYINMLTRPRY [6851] ), measured IC50 is 110

Given item AAPLEPFYPGDDATPQQMAQYAAELRRYINMLTRPRY [6818] , the value recorded as its IC50 is 150

Documented IC50 of APLEPVYPGDNATPEELNRYYASLRKYINMLTRPRY [6673] : 160

Summary for this binder, CAPLEPVYPGDNATPEQMAQYAADLRRYINMLTRPRY [6836] : IC50 is 690

Form field IC50, entry APLEPVYPGDNATPEQMAQYAAELRRYINMLTRPRY [6823] : 130

// IC50 lookup, binder = PAPLEPVYPGDNATPEELVKYYSALRRYINMLTRPRY [6861] , result: 100

IC50 measured on APLEPFYPGDNATPEELVKYYSALRRYINMLTRPRY [6843] = 170

IC50 reading for HAPLEPVYPGDNATPEELNHYYASLRRYINMLTRPRY [6859] : 150

APLEPVYPGDNATPEELVKYFVGLRRYINMLTRPRY [6850] has a reported IC50 of 170

Per the record, APLEPFYPGDNATPEQMAQYAAALRRYINLLTRPRY [6810] has IC50 of 110

GET /value?item= APLEPVYPGDNATPEELVKYFIELRRYINMLTRPRY [6849] &field=IC50 returns 150

Per the record, APLEPVYPGDNATPEQMAQYAADLRRYINMLTRPHRY (ends and bridges not checked) [compound of SEQ ID NO:62 (code 6659)] has IC50 of 170

Quick note, IC50 for APLEPFYPGDNATPEELVKYYASLRRYINMLTRPRY [6846] landed at 150

APLEPFYPGDNATPEQMARYAAELRRYINMLTRPRY [6828] has a reported IC50 of 120

Recorded IC50 (binder APLEPEYPGDDATPQQMARYAAELRRYINMLTRPRY [6827] ): 70

// field: IC50; key: APLEPVYPGDNATPEELNHYYSALRRYINMLTRPRY [6839] ; value = 120

IC50 measured on AAPLEPVYPGDNATPEELVKYYSALRRYINMLTRPRY [6863] = 160

The binder listed as APLEPVYPGDDATPEELNHYYSALRRYINMLTRPRY [6841] has a reported IC50 of 160

Data point: YYYAPLEPVYPGDYATPEQRAQYETQLRRYINTLTRPRY [6806] ; IC50 = 190

Note to self: IC50 recorded for APLEPVYPGDNATPEQRAQYAADLRRYINTLTRPRY [6807] was 190
